Provide the reported pKi of each item.
- test-system: Bromodomain-containing protein 4 (Homo sapiens, UniProt O60885)
- assay-details: Inhibition of human N-terminal His6 tagged BRD4 BD2 (352 to 457) residues expressed in Escherichia coli BL21(DE3) cells after 1 hr by TR-FRET assay
pKi field: float, defined as -log10 of concentration (mol/L).

Summary for this compound, CCNC(=O)c1cc2c(-c3cc(NC(=O)OC)ccc3Oc3c(C)cc(F)cc3C)cn(C)c(=O)c2[nH]1 : pKi is 8.54

# compound CCNC(=O)c1ccc(Oc2c(C)cccc2C)c(-c2cn(C)c(=O)c3[nH]c(C(=O)NCC)cc23)c1 ; its pKi = 8.74

Entry under test: Cc1cccc(C)c1Oc1ccc(C(C)(C)O)cc1-c1cn(C)c(=O)c2[nH]c(C(=O)NC(C)(C)C)cc12 . Its pKi was 8.96

For reference, reported pKi for CCNC(=O)c1cc2c(-c3cc(S(C)(=O)=O)ccc3Oc3ccc(F)cc3F)cn(C)c(=O)c2[nH]1 stands at 8.89

Value of measured pKi for the entry CCNC(=O)c1cc2c(-c3cc(S(C)(=O)=O)ccc3Nc3c(C)cccc3C)cn(C)c(=O)c2[nH]1 : 8.37

Measured pKi of CCNC(=O)c1cc2c(-c3cc(C4(O)COC4)ccc3Oc3c(C)cc(F)cc3C)cn(C)c(=O)c2[nH]1 : 8.96

Reported pKi of CCNC(=O)c1cc2c(-c3ccccc3Cc3c(C)cccc3C)cn(C)c(=O)c2[nH]1 : 7.60

---

Please respond with reported CL free for every item in the list.
- assay-details: Unbound hepatic clearance in rat liver microsomes
- Assay type: ADME, Microsome
Report only the number, with the unit mL/min/kg understood.

Recorded CL free (compound CCNC(=O)c1cc2c(-c3cc(S(=O)(=O)CC)ccc3-n3ccc4ccccc43)cn(C)c(=O)c2[nH]1 ): 633

Form field CL free, entry Cc1cc(F)cc(C)c1Oc1ccc(C(C)(C)O)cc1-c1cn(C)c(=O)c2[nH]c(C(=O)NC(C)(C)C)cc12 : 1450

# CL free (compound: CCNC(=O)c1cc2c(-c3cc(S(=O)(=O)CC)ccc3-n3ccc4cccc(C)c43)cn(C)c(=O)c2[nH]1 ) is 1550

Measured CL free of CCNC(=O)c1cc2c(-c3cc(S(=O)(=O)CC)ccc3Oc3c(C)cccc3C#N)cn(C)c(=O)c2[nH]1 : 1530

compound CCNC(=O)c1cc2c(-c3cc(S(=O)(=O)CC)ccc3Oc3c(C)cccc3Br)cn(C)c(=O)c2[nH]1 , CL free observed: 1350

According to the records, this compound CCNC(=O)c1cc2c(-c3cc(C4(O)CCOCC4)ccc3Oc3c(C)cc(F)cc3C)cn(C)c(=O)c2[nH]1 displays CL free of 817

Summary for this compound, CCNC(=O)c1cc2c(-c3cc(S(=O)(=O)C4CC4)ccc3Oc3c(C)cccc3C)cn(C)c(=O)c2[nH]1 : CL free is 1780

Briefly, CL free measured for Cc1cc(F)cc(C)c1Oc1ccc(C(C)(C)O)cc1-c1cn(C)c(=O)c2[nH]c(C(=O)NC(C)(C)C(F)(F)F)cc12 : 18300

Measured CL free of CCNC(=O)c1cc2c(-c3cc(C4(O)COC4)ccc3Oc3c(C)cc(F)cc3C)cn(C)c(=O)c2[nH]1 : 267

get_value(item= CCNC(=O)c1cc2c(-c3cc(S(=O)(=O)CC)ccc3Oc3c(C)cccc3F)cn(C)c(=O)c2[nH]1 , readout=CL free) returns 2530

Quick note, CL free for CCNC(=O)c1cc2c(-c3cc(S(=O)(=O)CC)ccc3Oc3c(C)cc(F)cc3C)cn(C)c(=O)c2[nH]1 landed at 467

Sure, the documented CL free for CCNC(=O)c1cc2c(-c3cc(S(=O)(=O)CC)ccc3-c3c(C)cccc3C)cn(C)c(=O)c2[nH]1 is 617

Looking up CCNC(=O)c1cc2c(-c3cc(S(C)(=O)=O)ccc3Nc3c(C)cccc3C)cn(C)c(=O)c2[nH]1 , I found its CL free recorded as 433

Data point: CCNC(=O)c1cc2c(-c3cc(S(=O)(=O)CC)ccc3Oc3ccc(F)cc3F)cn(C)c(=O)c2[nH]1 ; CL free = 188

Value of measured CL free for the entry CCN(C)C(=O)c1cc2c(-c3cc(S(C)(=O)=O)ccc3Oc3ccc(F)cc3F)cn(C)c(=O)c2[nH]1 : 282
